System: Fibroblast
Experiment: Multiplex assay against human fibroblast
Format: toxicity, cell-based
Conditions: 12 h, 1 µM, compound concentration 1 uM, replicate 1
# cutoff 20% applies to Population Membrane Permeable-Phenotype (%); >= gives condition met, < gives condition not met

compound="CC[C@H](Nc1ncnc2[nH]cnc12)c1nc2cccc(F)c2c(=O)n1-c1ccccc1 [IDELALISIB]" category_label="condition not met"
compound="CN1C(=O)[C@@H](NC(=O)c2cc3ccccc3[nH]2)N=C(c2ccccc2)c2ccccc21 [DEVAZEPIDE]" category_label="condition met"
compound=Cl.NC[C@@H]1O[C@H](C23CC4CC(CC(C4)C2)C3)Cc2c1ccc(O)c2O category_label="condition not met"
compound=Cc1ccc(S(=O)(=O)NC2c3ccccc3Oc3ccccc32)cc1 category_label="condition met"
compound=Cc1c(Nc2ccc(S(=O)(=O)N3CCN(C)CC3)cc2F)nc2ccc(-c3cnn(C4CC4)c3)cn2c1=O category_label="condition not met"
compound="Oc1cccc(-c2nc(N3CCOCC3)c3oc4ncccc4c3n2)c1 [PI-103]" category_label="condition not met"
compound="CC(C)C[C@H](NC(=O)[C@H](Cc1ccccc1)NC(=O)CNC(=O)CNC(=O)[C@@H](N)Cc1ccc(O)cc1)C(=O)O [ENKEPHALIN]" category_label="condition met"
compound=CCOC(=O)CCNc1cc(N2CCc3ccccc3CC2)nc(-c2ccccn2)n1 category_label="condition not met"
compound=CCCc1cc(C)[nH]c(=O)c1CNC(=O)c1cc(-c2ccc(N3CCN(C(C)C)CC3)nc2)cc2c1cnn2C(C)C category_label="condition not met"

---

Test system: HEK-293T
Assay: Multiplex assay against HEK293T
Format: toxicity, cell-based
Conditions: human, 24 h, 10 µM, compound concentration 10 uM, replicate 2
Tag: true (1) if measured Population Apoptotic (%) is not below 8%, false (0) if it is.

compound=CC(C)[C@H](CO)Nc1nc(Nc2cccc(Cl)c2)c2ncn(C(C)C)c2n1 test_target=HEK-293T category_label="true (1)"
compound="CC(Cc1ccc(O)c(O)c1)C(C)Cc1ccc(O)c(O)c1 (stereo not drawn) [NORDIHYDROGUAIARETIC ACID]" test_target=HEK-293T category_label="true (1)"
compound=CC(C)C[C@H](NC(=O)[C@H](Cc1ccccc1)NC(=O)CNC(=O)CNC(=O)[C@@H](N)Cc1ccc(O)cc1)C(=O)O test_target=HEK-293T category_label="false (0)"
compound=Cc1ccc(NC(=O)Nc2cc(C(F)(F)F)ccc2F)cc1Nc1ccc2c(c1)NC(=O)/C2=C\c1ccc[nH]1 test_target=HEK-293T category_label="false (0)"
compound="Cl.Cn1c2c(c3ccc(Cl)c(Cl)c31)C(C#N)C1(CCNCC1)NC2=O (stereo not drawn)" test_target=HEK-293T category_label="true (1)"
compound=CC[C@H](Nc1ncnc2[nH]cnc12)c1nc2cccc(F)c2c(=O)n1-c1ccccc1 test_target=HEK-293T category_label="false (0)"
compound=CC(/C=C1\SC(=S)N(CCCC(=O)Nc2ccc(C(=O)O)c(O)c2)C1=O)=C\c1ccccc1 test_target=HEK-293T category_label="false (0)"

---

System: HEK-293T
Experiment: Multiplex assay against HEK293T
Format: toxicity, cell-based
Settings: human, 24 h, 1 µM, compound concentration 1 uM, replicate 1
property-label: Population Fragmented Nuclei (%)

compound="CC[C@@H]1C(=O)N(C)c2cnc(Nc3ccc(C(=O)NC4CCN(C)CC4)cc3OC)nc2N1C1CCCC1 [BI-2536]" property_label="Population Fragmented Nuclei (%)" reported_measurement=14
compound="CCOc1ccn(-c2ccc(F)cc2)c(=O)c1C(=O)Nc1ccc(Oc2ccnc(N)c2Cl)c(F)c1 [BMS-777607]" property_label="Population Fragmented Nuclei (%)" reported_measurement=11
compound="Oc1cccc(-c2nc(N3CCOCC3)c3oc4ncccc4c3n2)c1 [PI-103]" property_label="Population Fragmented Nuclei (%)" reported_measurement=13
compound="CN1C(=O)[C@@H](NC(=O)c2cc3ccccc3[nH]2)N=C(c2ccccc2)c2ccccc21 [DEVAZEPIDE]" property_label="Population Fragmented Nuclei (%)" reported_measurement=11
compound=Cc1ccc(S(=O)(=O)NC2c3ccccc3Oc3ccccc32)cc1 property_label="Population Fragmented Nuclei (%)" reported_measurement=10
compound=Cc1ccc(NC(=O)Nc2cc(C(F)(F)F)ccc2F)cc1Nc1ccc2c(c1)NC(=O)/C2=C\c1ccc[nH]1 property_label="Population Fragmented Nuclei (%)" reported_measurement=20
compound=N#Cc1cccc(C(=O)Nc2cc(-c3ccccc3)nn2-c2ccccc2)c1 property_label="Population Fragmented Nuclei (%)" reported_measurement=9
compound=CCCc1cc(C)[nH]c(=O)c1CNC(=O)c1cc(-c2ccc(N3CCN(C(C)C)CC3)nc2)cc2c1cnn2C(C)C property_label="Population Fragmented Nuclei (%)" reported_measurement=11
compound="CC[C@H](Nc1ncnc2[nH]cnc12)c1nc2cccc(F)c2c(=O)n1-c1ccccc1 [IDELALISIB]" property_label="Population Fragmented Nuclei (%)" reported_measurement=14
compound="N#CCNC(=O)c1ccc(-c2ccnc(Nc3ccc(N4CCOCC4)cc3)n2)cc1 [MOMELOTINIB]" property_label="Population Fragmented Nuclei (%)" reported_measurement=9
compound=Cc1c(P(=S)(c2ccccc2)c2ccccc2)n2ccccc2[n+]1C/C=C/c1ccccc1.[Br-] property_label="Population Fragmented Nuclei (%)" reported_measurement=20
compound="CC(C)[C@H](CO)Nc1nc(Nc2cccc(Cl)c2)c2ncn(C(C)C)c2n1 [PURVALANOLA]" property_label="Population Fragmented Nuclei (%)" reported_measurement=14
compound=CN(c1cc(C(F)(F)F)nc(OCCC(=O)O)n1)c1cccc2c1CCC2 property_label="Population Fragmented Nuclei (%)" reported_measurement=18
compound=Cl.NC[C@@H]1O[C@H](C23CC4CC(CC(C4)C2)C3)Cc2c1ccc(O)c2O property_label="Population Fragmented Nuclei (%)" reported_measurement=10
compound=CC(C)c1cc(Nc2nc(N3CCC[C@H](N)C3)ncc2C(N)=O)cc(C(C)C)n1 property_label="Population Fragmented Nuclei (%)" reported_measurement=8
compound=CCOC(=O)CCNc1cc(N2CCc3ccccc3CC2)nc(-c2ccccn2)n1 property_label="Population Fragmented Nuclei (%)" reported_measurement=12
compound="C[C@@H](Oc1cc(-n2cnc3ccc(CN4CCN(C)CC4)cc32)sc1C(N)=O)c1ccccc1C(F)(F)F [GSK-461364]" property_label="Population Fragmented Nuclei (%)" reported_measurement=14
compound="CNC(=O)Nc1ccc2c(c1)CC[C@@]21OC(=O)N(CC(=O)N(Cc2ccc(F)cc2)[C@@H](C)C(F)(F)F)C1=O [A-485]" property_label="Population Fragmented Nuclei (%)" reported_measurement=18
compound=CCCCN(CC)c1nc(C)nc2c1c(C)cn2-c1c(C)cc(C)cc1C.Cl property_label="Population Fragmented Nuclei (%)" reported_measurement=16
compound="CCCCCNC(=N)N/N=C/c1c[nH]c2ccc(OC)cc12.O=C(O)/C=C\\C(=O)O [TEGASEROD MALEATE]" property_label="Population Fragmented Nuclei (%)" reported_measurement=15
compound=Cc1c(Nc2ccc(S(=O)(=O)N3CCN(C)CC3)cc2F)nc2ccc(Nc3cnn(C4CC4)c3)cn2c1=O property_label="Population Fragmented Nuclei (%)" reported_measurement=16
compound=C=CC(=O)Nc1cc(-n2c(=O)ccc3cnc4ccc(-c5ccc(NS(C)(=O)=O)cc5)cc4c32)ccc1C property_label="Population Fragmented Nuclei (%)" reported_measurement=15
compound="Cl.Cn1c2c(c3ccc(Cl)c(Cl)c31)C(C#N)C1(CCNCC1)NC2=O (configuration not stated)" property_label="Population Fragmented Nuclei (%)" reported_measurement=11
compound=CC(/C=C1\SC(=S)N(CCCC(=O)Nc2ccc(C(=O)O)c(O)c2)C1=O)=C\c1ccccc1 property_label="Population Fragmented Nuclei (%)" reported_measurement=13
compound=Cc1c(Nc2ccc(S(=O)(=O)N3CCN(C)CC3)cc2F)nc2ccc(-c3cnn(C4CC4)c3)cn2c1=O property_label="Population Fragmented Nuclei (%)" reported_measurement=11
compound="CC(Cc1ccc(O)c(O)c1)C(C)Cc1ccc(O)c(O)c1 (configuration not stated) [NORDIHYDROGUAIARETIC ACID]" property_label="Population Fragmented Nuclei (%)" reported_measurement=12

---

Tested on: Fibroblast
Assay: Multiplex assay against human fibroblast
Assay type: toxicity, cell-based
Conditions: 24 h, 10 µM, compound concentration 10 uM, replicate 2
property-label: Population Hoechst High Intensity Objects (%)

molecule=c1ccc(-c2oc3ncnc(NC[C@@H]4CCCO4)c3c2-c2ccccc2)cc1 test_target=Fibroblast reported_measurement=10
molecule=C[C@@H](Oc1cc(-n2cnc3ccc(CN4CCN(C)CC4)cc32)sc1C(N)=O)c1ccccc1C(F)(F)F test_target=Fibroblast reported_measurement=6
molecule="CS(=O)(=O)N1CCCC(NC(=O)[C@H](CCC2CCCCC2)NC(=O)c2ccc(CNc3ncnc4c3nnn4-c3ccccc3)cc2)C1 (some centres not stated)" test_target=Fibroblast reported_measurement=9
molecule=C=CC(=O)Nc1cc(-n2c(=O)ccc3cnc4ccc(-c5ccc(NS(C)(=O)=O)cc5)cc4c32)ccc1C test_target=Fibroblast reported_measurement=5
molecule=Cc1c(P(=S)(c2ccccc2)c2ccccc2)n2ccccc2[n+]1C/C=C/c1ccccc1.[Br-] test_target=Fibroblast reported_measurement=26
molecule=CC[C@H](Nc1ncnc2[nH]cnc12)c1nc2cccc(F)c2c(=O)n1-c1ccccc1 test_target=Fibroblast reported_measurement=22
molecule="Cl.Cn1c2c(c3ccc(Cl)c(Cl)c31)C(C#N)C1(CCNCC1)NC2=O (configuration not stated)" test_target=Fibroblast reported_measurement=43
molecule=Cc1ccc(NC(=O)Nc2cc(C(F)(F)F)ccc2F)cc1Nc1ccc2c(c1)NC(=O)/C2=C\c1ccc[nH]1 test_target=Fibroblast reported_measurement=29
molecule=CCCCN(CC)c1nc(C)nc2c1c(C)cn2-c1c(C)cc(C)cc1C.Cl test_target=Fibroblast reported_measurement=4
molecule=CCOc1ccn(-c2ccc(F)cc2)c(=O)c1C(=O)Nc1ccc(Oc2ccnc(N)c2Cl)c(F)c1 test_target=Fibroblast reported_measurement=35
molecule=Oc1cccc(-c2nc(N3CCOCC3)c3oc4ncccc4c3n2)c1 test_target=Fibroblast reported_measurement=4
molecule=CC(C)c1cc(Nc2nc(N3CCC[C@H](N)C3)ncc2C(N)=O)cc(C(C)C)n1 test_target=Fibroblast reported_measurement=17
molecule=CCCc1cc(C)[nH]c(=O)c1CNC(=O)c1cc(-c2ccc(N3CCN(C(C)C)CC3)nc2)cc2c1cnn2C(C)C test_target=Fibroblast reported_measurement=9
molecule=CN(c1cc(C(F)(F)F)nc(OCCC(=O)O)n1)c1cccc2c1CCC2 test_target=Fibroblast reported_measurement=13
molecule=Cl.NC[C@@H]1O[C@H](C23CC4CC(CC(C4)C2)C3)Cc2c1ccc(O)c2O test_target=Fibroblast reported_measurement=18
molecule=CC(/C=C1\SC(=S)N(CCCC(=O)Nc2ccc(C(=O)O)c(O)c2)C1=O)=C\c1ccccc1 test_target=Fibroblast reported_measurement=4
molecule="CN1C(=O)[C@@H](NC(=O)c2cc3ccccc3[nH]2)N=C(c2ccccc2)c2ccccc21 [DEVAZEPIDE]" test_target=Fibroblast reported_measurement=7
